All figures here come from the OligoGym collection.

Listed next: entries and their corresponding sensor-assay potency score (higher = more potent).
- subjectOfTest: PLTP
- assayProtocol: pooled miR-30 sensor sort-seq; sequence = guide strand; further: reference of the scale not given here
- measurementParameters: shRNA
// print number alone

[
  {
    "residues": "TTGAGCAGGACCGTCCCTGCGT",
    "numericResult": -0.0816
  },
  {
    "residues": "TTGAAGCATCAGCTCCTGCTGT",
    "numericResult": 0.293
  },
  {
    "residues": "TACAGCTTCAAATCCCGTCTTC",
    "numericResult": -0.171
  },
  {
    "residues": "ATAGATTCGGAACCTGCGCAGG",
    "numericResult": -1.18
  },
  {
    "residues": "TTAAATTGGGTACAGCTTCAAA",
    "numericResult": -1.22
  },
  {
    "residues": "TCATACACCTTCAAGAACCAGT",
    "numericResult": 0.217
  }
]

What is its sensor-assay potency score (higher = more potent) for PLTP? Entry: `TCATACACCTTCTTGAAGGTTC`
-0.197

* * *

Form field: sensor-assay potency score (higher = more potent) (one value per entry).
- subjectOfTest: LEPRE1
- assayProtocol: pooled miR-30 sensor sort-seq; sequence = guide strand
- measurementParameters: shRNA

Answered cases to consult:
[
  {
    "residues": "TAGAGTCGCACTCCCAGTCGAA",
    "result": -0.94
  },
  {
    "residues": "TTCTCCAACTTGTTGATCTTGA",
    "result": 0.193
  },
  {
    "residues": "TTCTCTTGCAATCTCTTGGGAA",
    "result": -0.439
  },
  {
    "residues": "TGCAGCAACAGCTTTCTCCAAC",
    "result": -1.07
  }
]

// moving on: another record for sensor-assay potency score (higher = more potent)
What value of sensor-assay potency score (higher = more potent) has been recorded for this entry: `TCCAGCTCCATCTCTTCGCTGA`
-0.664

* * *

- subjectOfTest: MRFAP1
- assayProtocol: pooled miR-30 sensor sort-seq; sequence = guide strand
- measurementParameters: shRNA
valueType: sensor-assay potency score (higher = more potent)
Output spec: single numeric token, no unit.

The cases that follow already have their sensor-assay potency score (higher = more potent) on record.
[
  {
    "residues": "AGCACCTCCACTTCCTCCGGTT",
    "numericResult": -1.22
  },
  {
    "residues": "TCTGGATGAGCATATTGTCCAT",
    "numericResult": -0.959
  },
  {
    "residues": "TATCCGCCGGACCAGCTCCACC",
    "numericResult": -1.87
  }
]

Form field - read-out: sensor-assay potency score (higher = more potent); system: MRFAP1; submitted item: `TTGACCAGAATCCATTGGCTGG`
-0.987

Entry `CTGGATGAGCATATTGTCCATC` , system MRFAP1: what sensor-assay potency score (higher = more potent) was measured?
-2.34

Tell me reported sensor-assay potency score (higher = more potent) for `TTCTCCTCGGCCTTCTCGCACC` , tested with MRFAP1.
-1.46

Lab note: need sensor-assay potency score (higher = more potent) for `TCCTCGGCCTTCTCGCACCTCT` on MRFAP1, anyone have it?
-1.7

Record lookup: for MRFAP1, what sensor-assay potency score (higher = more potent) belongs to `ATGAGCATATTGTCCATCTCCC` ?
-0.693

Could you share what sensor-assay potency score (higher = more potent) was measured for `TTTGATCTGGATGAGCATATTG` , tested on MRFAP1?
-1.65

* * *

- subjectOfTest: FAN1
- assayProtocol: pooled miR-30 sensor sort-seq; sequence = guide strand
- measurementParameters: shRNA
Reported values of sensor-assay potency score (higher = more potent) for individual entries
A bare number is all that is needed in reply.

[
  {
    "residues": "ATAACTTCTGACCAGTAGCTGA",
    "subjectOfTest": "FAN1",
    "numericResult": -0.771
  }
]

Form field: reported sensor-assay potency score (higher = more potent) of `TTGCTGATTGATAAGCTTCTAC`
-0.452

Field request: sensor-assay potency score (higher = more potent) | item: `TAACTAGGAAACTCCATTCGGC`
-0.0842

* * *

- subjectOfTest: QSOX1
- assayProtocol: pooled miR-30 sensor sort-seq; sequence = guide strand
- measurementParameters: shRNA
Listed next: entries and their corresponding sensor-assay potency score (higher = more potent).
// keep it numeric: no unit symbol after the value

[
  {
    "residues": "TAAGCGGTATAGAAGGACCTGG",
    "subjectOfTest": "QSOX1",
    "numericResult": -0.156
  }
]

Look up sensor-assay potency score (higher = more potent) with QSOX1 for this sequence: `TACTCTTCGTTATTTCTCGCAA`
-0.156

Lookup: sensor-assay potency score (higher = more potent) / QSOX1 / `TAGCGCAGTCTCGGCAGCCGAA`
-1.38

* * *

Catalogue of sensor-assay potency score (higher = more potent) readings, one per entry.
- subjectOfTest: GPR137
- assayProtocol: pooled miR-30 sensor sort-seq; sequence = guide strand
- measurementParameters: shRNA

Solved cases (4 shown):
[
  {
    "residues": "TCATTCACCAGGTCCGCCTGGT",
    "result": 0.279
  },
  {
    "residues": "TAGAGCAGGACCATGGCGCCAC",
    "result": -0.353
  },
  {
    "residues": "AGTGCTGTCAGGTTGTAGCAGG",
    "result": -1.93
  },
  {
    "residues": "TAGCTGAGACGCTTGTGCCCAT",
    "result": -0.72
  }
]

For the sequence shown here, `TCACTATGACAGGAGCAGCAAG` , give the reported sensor-assay potency score (higher = more potent).
-1.58

* * *

In this section, each of the sequences is paired with its reported sensor-assay potency score (higher = more potent).
- subjectOfTest: NRTN
- assayProtocol: pooled miR-30 sensor sort-seq; sequence = guide strand
- measurementParameters: shRNA
Please state the value as a number alone, without comment.

[
  {
    "residues": "TCGTCGCAGCCCGAGGTCGTAG",
    "numericResult": -1.65
  },
  {
    "residues": "ATGGACAGCACGGAGCTGCAGA",
    "numericResult": -1.37
  },
  {
    "residues": "TCCTCGTAGGCCGTCGGGCGGC",
    "numericResult": -1.9
  }
]

Missing value: sensor-assay potency score (higher = more potent), NRTN, entry `TAGCGGAACAGCACCGTCTCGT` . Fill in?
-0.209

* * *

- subjectOfTest: CMIP
- assayProtocol: pooled miR-30 sensor sort-seq; sequence = guide strand
- measurementParameters: shRNA
valueType: sensor-assay potency score (higher = more potent)
Just the number.

Consider the worked cases shown below.
[
  {
    "residues": "TTCGAGGTGAGGATCTTGCTGA",
    "subjectOfTest": "CMIP",
    "numericResult": 0.014
  },
  {
    "residues": "TTGGGTGTCGTTGTTGTCGATG",
    "subjectOfTest": "CMIP",
    "numericResult": -0.39
  },
  {
    "residues": "TTGTATTCCAGCATCAAGCACA",
    "subjectOfTest": "CMIP",
    "numericResult": -0.524
  },
  {
    "residues": "TTCAAGACAACTTCCCAGCGGC",
    "subjectOfTest": "CMIP",
    "numericResult": -0.119
  },
  {
    "residues": "TAAACTGCAGAGACTCTTCATG",
    "subjectOfTest": "CMIP",
    "numericResult": 0.214
  }
]

Query: sensor-assay potency score (higher = more potent); subject: `TCGATGACCACCATGGACCGGG`
-0.357

Consider the sequence `TTGGAGGGCAGTGTTAGCCTGG` and give its measured sensor-assay potency score (higher = more potent).
-0.584

Using the record for `TTCTCTGAGAGCAGTTTCGAGA` , report its sensor-assay potency score (higher = more potent).
-0.721

* * *

- subjectOfTest: ZNF343
- assayProtocol: pooled miR-30 sensor sort-seq; sequence = guide strand
- measurementParameters: shRNA
Returns true (1) if the recorded sensor-assay potency score (higher = more potent) is greater than or equal to -0.5, and false (0) otherwise.

For orientation, consider the following solved cases.
[
  {
    "residues": "TACATGTTGACTGAGGAACTGC",
    "group": "true (1)"
  },
  {
    "residues": "TTGATGAGATCTGAGTTCTGGC",
    "group": "true (1)"
  },
  {
    "residues": "TTTGATGAGATCTGAGTTCTGG",
    "group": "true (1)"
  },
  {
    "residues": "TTTGACTTATGACTAAAGCCTC",
    "group": "false (0)"
  }
]

Then there is this sequence:
Does the reported sensor-assay potency score (higher = more potent) for `TAGAAGGCAAGCCTTTCGCTTT` fall at or above the -0.5 mark?
false (0)
